system: unfractionated LDL; assay: Copper-induced oxidation of unfractionated LDL, TBARS (Example 7); assay type: biochemical, human; conditions: 10 μM, 1 hr, vs vehicle-treated controls
measured parameter: effect on unfractionated LDL oxidation

1) O=C(O)c1cccnc1    no significant effect
2) Cc1c(C)c2c(c(C)c1O)CC[C@@](C)(CCC[C@H](C)CCC[C@H](C)CCCC(C)C)O2    no significant effect
3) Cc1ccc(C)c(OCCCC(C)(C)C(=O)O)c1    no significant effect
